// data source = ChEMBL document CHEMBL1132699

Test system: PC-3
protocol-details: Tested in vitro for anticancer activity against PC-3 cells
Assay type: functional, cell-based
condition: Homo sapiens
pIC50: −log10 of the molar value.
Entries and their pIC50 values follow.
parameter-measured: pIC50

> print(dat)
                                    molecule  parameter.measured  value.reported
 1     Nc1nc(=O)n([C@H]2C=C[C@@H](CO)O2)cc1I               pIC50          < 4.00
 2  O=c1[nH]c(=O)n([C@@H]2C=C[C@@H](CO)O2)cc1F               pIC50          < 4.00
 3    Nc1nc(=O)n([C@@H]2C=C[C@@H](CO)O2)cc1F               pIC50          < 4.00
 4  O=C1NC(O)C(F)=CN1[C@H]1C=C[C@@H](CO)O1 (stereo partly specified)               pIC50            4.20
 5  CCCNc1nc(=O)n([C@H]2C=C[C@@H](CO)O2)cc1F               pIC50          < 4.00
 6  CCCC(=O)OC[C@@H]1C=C[C@H](n2cc(F)c(N)nc2=O)O1               pIC50          < 4.00
 7  Nc1nc(=O)n([C@@H]2C=C[C@H](CO)O2)cc1F [ELVUCITABINE]               pIC50          < 4.00
 8    O=c1[nH]cc(F)c(=O)[nH]1 [FLUOROURACIL]               pIC50          < 4.00
 9  O=c1[nH]c(=O)n([C@@H]2C=C[C@H](CO)O2)cc1F               pIC50            4.08
10  CC(=O)Nc1nc(=O)n([C@H]2C=C[C@@H](CO)O2)cc1F               pIC50          < 4.00
11  CCCCC(=O)OC[C@@H]1C=C[C@H](n2cc(F)c(N)nc2=O)O1               pIC50          < 4.00
